Assay: Pharmacokinetic study in rats after a single intravenous administration of concentrated Kudiezi injection (HPLC-MS/MS of plasma)
Type: in vivo, Sprague-Dawley rats
Conditions: male, Sprague-Dawley, rat, plasma, iv, 3.6 mL/kg, single i.v. 3.6 mL/kg of 15 times concentrated KI, mean ± SD, n = 5, read-out: AUC0-t
Catalogue of molecules with associated log10(AUC(0-t))
reported_metric: log10(AUC(0-t)) (log10 of the value in ng·h/mL)

{"molecule": "O=c1cc(-c2ccc(O)c(O)c2)oc2cc(O[C@@H]3O[C@H](CO)[C@@H](O)[C@H](O)[C@H]3O)cc(O)c12 [VIII, luteolin-7-O-β-D-glucoside]", "reported_metric": "log10(AUC(0-t))", "readout_value": 1.47}
{"molecule": "O=C(/C=C/c1ccc(O)c(O)c1)O[C@H]1[C@H](O)C[C@](O)(C(=O)O)C[C@H]1O [IV, 4-caffeoylquinic acid]", "reported_metric": "log10(AUC(0-t))", "readout_value": 2.20}
{"molecule": "O=C(O)/C=C/c1ccc(O)c(O)c1 [Compound V, caffeic acid]", "reported_metric": "log10(AUC(0-t))", "readout_value": 2.16}
{"molecule": "O=C(O)[C@H]1O[C@@H](Oc2cc(O)c3c(=O)cc(-c4ccc(O)cc4)oc3c2)[C@H](O)[C@@H](O)[C@@H]1O [IX, apigenin-7-O-β-D-glucuronide]", "reported_metric": "log10(AUC(0-t))", "readout_value": 1.75}
{"molecule": "O=c1cc(-c2ccc(O)c(O)c2)oc2cc(O[C@@H]3O[C@H](CO[C@@H]4O[C@H](CO)[C@@H](O)[C@H](O)[C@H]4O)[C@@H](O)[C@H](O)[C@H]3O)cc(O)c12 [Compound VI, luteolin-7-O-β-D-gentiobioside]", "reported_metric": "log10(AUC(0-t))", "readout_value": 2.21}
{"molecule": "O=C(/C=C/c1ccc(O)c(O)c1)O[C@@H]1C[C@](O)(C(=O)O)C[C@@H](O)[C@H]1O [I, 5-caffeoylquinic acid]", "reported_metric": "log10(AUC(0-t))", "readout_value": 2.23}
{"molecule": "O=C(O)[C@H]1O[C@@H](Oc2cc(O)c3c(=O)cc(-c4ccc(O)c(O)c4)oc3c2)[C@H](O)[C@@H](O)[C@@H]1O [VII, luteolin-7-O-β-D-glucuronide]", "reported_metric": "log10(AUC(0-t))", "readout_value": 2.83}
{"molecule": "O=C(/C=C/c1ccc(O)c(O)c1)O[C@@H](C(=O)O)[C@@H](O)C(=O)O [II, caftaric acid]", "reported_metric": "log10(AUC(0-t))", "readout_value": 3.44}
